All values here come from paper PMC5355811.

# Tested on: Ba/F3 cells of EGFR-del19
# Run Description: Drug sensitivity screening at 100 nM, Ba/F3 EGFR-del19
# Assay type: cell-based
# Test Parameters: 100 nM, 72 h, DMSO = 100; experiment 1
Assign Relative cell viability (% of DMSO control) in del19 Ba/F3 cells to each entry below.
Just the number.

Task: If you can, please state the reported Relative cell viability (% of DMSO control) in del19 Ba/F3 cells value of COc1cc2nccc(Oc3ccc(NC(=O)C4(C(=O)Nc5ccc(F)cc5)CC4)cc3)c2cc1OC .
Result: 97.6803

Task: Check COc1cc2c(Nc3ccc(Br)cc3F)ncnc2cc1OCC1CCN(C)CC1 too.
Result: 1.287

Task: Check COc1cc(N2CCC(N)CC2)ccc1Nc1ncc(Cl)c(-c2c[nH]c3ccccc23)n1 too.
Result: 35.8012

Task: Check Cc1[nH]c(/C=C2\C(=O)Nc3ccc(S(=O)(=O)Cc4c(Cl)cccc4Cl)cc32)c(C)c1C(=O)N1CCC[C@@H]1CN1CCCC1 too.
Result: 109.731

====

# System: Ba/F3 cells of EGFR-T790M/del19
# Run Description: Drug sensitivity screening at 100 nM, Ba/F3 EGFR-T790M/del19
# Type: cell-based
# Test Parameters: 100 nM, 72 h, DMSO = 100; experiment 1
Recorded Metric: Relative cell viability (% of DMSO control)
Just the number.

Task: If you can, please state the reported Relative cell viability (% of DMSO control) value of CC(=O)O[C@H]1C(=O)[C@@]2(C)[C@H]([C@H](OC(=O)c3ccccc3)[C@]3(O)C[C@H](OC(=O)[C@H](O)[C@@H](NC(=O)c4ccccc4)c4ccccc4)C(C)=C1C3(C)C)[C@]1(OC(C)=O)CO[C@@H]1C[C@@H]2O .
Result: 72.6289

Task: Check COc1cc2nccc(Oc3ccc(NC(=O)NC4CC4)c(Cl)c3)c2cc1C(N)=O too.
Result: 107.332

Task: Check CO[C@H]1C[C@@H]2CC[C@@H](C)[C@@](O)(O2)C(=O)C(=O)N2CCCC[C@H]2C(=O)O[C@H]([C@H](C)C[C@@H]2CC[C@@H](OCCO)[C@H](OC)C2)CC(=O)[C@H](C)/C=C(\C)[C@@H](O)[C@@H](OC)C(=O)[C@H](C)C[C@H](C)/C=C/C=C/C=C/1C too.
Result: 31.3636

Task: Check COc1cc2c(Oc3ccc(NC(=O)C4(C(=O)Nc5ccc(F)cc5)CC4)cc3F)ccnc2cc1OCCCN1CCOCC1 too.
Result: 105.61

====

Assign Relative cell viability (% of DMSO control) to each entry below.
# Test system: Ba/F3 cells of EGFR-T790M/del19
# Run Description: Drug sensitivity screening at 100 nM, Ba/F3 EGFR-T790M/del19
# Type: cell-based
# Test Parameters: 100 nM, 72 h, DMSO = 100; experiment 3
Just the number.

Task: If you can, please state the reported Relative cell viability (% of DMSO control) value of COc1cc(N2CCC(N3CCN(C)CC3)CC2)ccc1Nc1ncnc(Nc2ccccc2S(=O)(=O)C(C)C)n1 .
Result: 110.516

Task: Check COc1cc2nccc(Oc3ccc(NC(=O)C4(C(=O)Nc5ccc(F)cc5)CC4)cc3)c2cc1OC too.
Result: 110.02

Task: Check Cc1nc2ccc(-n3ncc(C(=O)c4cc5ccccc5[nH]4)c3N)cc2[nH]1 too.
Result: 103.872

Task: Check CS(=O)(=O)N1CCN(Cc2cc3nc(-c4cccc5[nH]ncc45)nc(N4CCOCC4)c3s2)CC1 too.
Result: 51.7458

====

# Tested on: PC9 parent cells (del19)
# Run Description: CellTiter-Glo cell viability assay, PC9 parent
# Format: cell-based
# Test Parameters: Table 1d, ALK–TKIs; 72 h; read-out: IC50, PC9 parent
Assign IC50 to each entry below.
Give the value in nM but do not write nM after it.

Task: Reported IC50 for PC9 parent cells (del19), given COc1cc(N2CCC(N)CC2)ccc1Nc1ncc(Cl)c(-c2c[nH]c3ccccc23)n1 ?
Result: 253

Task: Check COc1cc(N2CCC(N(C)C)CC2)ccc1Nc1ncc(Cl)c(Nc2ccccc2P(C)(C)=O)n1 too.
Result: 46.2

====

# Tested on: Ba/F3 cells of EGFR-T790M/del19
# Run Description: Drug sensitivity screening at 100 nM, Ba/F3 EGFR-T790M/del19
# Assay type: cell-based
# Test Parameters: Mus musculus, BaF3, 72 h, read-out: Relative cell viability (ratio to DMSO control), del19/T790M
Assign viability at 0.1 µM to each entry below.
Quote the value and follow it with the unit of measurement.

Task: If you can, please state the reported viability at 0.1 µM value of Cc1ccc(C(=O)Nc2ccc(CN3CCN(C)CC3)c(C(F)(F)F)c2)cc1C#Cc1cnc2cccnn12 [Ponatinib, ponatinib] .
Result: 53.5%

Task: Check C[C@]12O[C@H](C[C@]1(O)CO)n1c3ccccc3c3c4c(c5c6ccccc6n2c5c31)CNC4=O [CEP701] too.
Result: 7.99%

Task: Check C=CC(=O)Nc1cc(Nc2nccc(-c3cn(C)c4ccccc34)n2)c(OC)cc1N(C)CCN(C)C [Osimertinib, osimertinib] too.
Result: 7.61%

Task: Check CS(=O)(=O)CCNCc1ccc(-c2ccc3ncnc(Nc4ccc(OCc5cccc(F)c5)c(Cl)c4)c3c2)o1 [Lapatinib, lapatinib] too.
Result: 102%

====

# Test system: Ba/F3 cells of EGFR-C797S/T790M/del19
# Run Description: Drug sensitivity screening at 100 nM, Ba/F3 EGFR-C797S/T790M/del19
# Format: cell-based
# Test Parameters: Mus musculus, BaF3, 72 h, 100 nM inhibitor, 72 h, DMSO = 100; mean of three independent experiments (Fig. 1a data)
Assign viability at 0.1 µM to each entry below.
Quote the value and follow it with the unit of measurement.

Task: If you can, please state the reported viability at 0.1 µM value of Cc1cc(Nc2ncc(Cl)c(Nc3ccccc3S(=O)(=O)C(C)C)n2)c(OC(C)C)cc1C1CCNCC1 .
Result: 135%

Task: Check COC(=O)c1ccc2c(c1)NC(=O)/C2=C(\Nc1ccc(N(C)C(=O)CN2CCN(C)CC2)cc1)c1ccccc1 too.
Result: 108%

Task: Check C[C@H]1Oc2cc(cnc2N)-c2c(nn(C)c2C#N)CN(C)C(=O)c2ccc(F)cc21 too.
Result: 126%

Task: Check COc1cc(N2CCC(N3CCN(C)CC3)CC2)ccc1Nc1ncc(Cl)c(Nc2ccccc2S(=O)(=O)C(C)C)n1 too.
Result: 110%

Task: Check Cc1ccc(NC(=O)c2ccc(CN3CCN(C)CC3)cc2)cc1Nc1nccc(-c2cccnc2)n1 too.
Result: 129%

Task: Check Cn1cnc2c(F)c(Nc3ccc(Br)cc3Cl)c(C(=O)NOCCO)cc21 too.
Result: 134%

Task: Check CS(=O)(=O)N1CCN(Cc2cc3nc(-c4cccc5[nH]ncc45)nc(N4CCOCC4)c3s2)CC1 too.
Result: 66.1%

Task: Check CCCS(=O)(=O)Nc1ccc(F)c(C(=O)c2c[nH]c3ncc(-c4ccc(Cl)cc4)cc23)c1F too.
Result: 96.8%

Task: Check CCc1cc2c(cc1N1CCC(N3CCOCC3)CC1)C(C)(C)c1[nH]c3cc(C#N)ccc3c1C2=O too.
Result: 146%

Task: Check CC(=O)Nc1cccc(-n2c(=O)n(C3CC3)c(=O)c3c(Nc4ccc(I)cc4F)n(C)c(=O)c(C)c32)c1 too.
Result: 44.2%

====

Assign Relative cell viability (% of DMSO control) in del19 Ba/F3 cells to each entry below.
# Tested on: Ba/F3 cells of EGFR-del19
# Run Description: Drug sensitivity screening at 100 nM, Ba/F3 EGFR-del19
# Format: cell-based
# Test Parameters: 100 nM, 72 h, DMSO = 100; experiment 2
Just the number.

Task: Reported Relative cell viability (% of DMSO control) in del19 Ba/F3 cells for Ba/F3 cells of EGFR-del19, given CC(=O)O[C@H]1C(=O)[C@@]2(C)[C@H]([C@H](OC(=O)c3ccccc3)[C@]3(O)C[C@H](OC(=O)[C@H](O)[C@@H](NC(=O)c4ccccc4)c4ccccc4)C(C)=C1C3(C)C)[C@]1(OC(C)=O)CO[C@@H]1C[C@@H]2O ?
Result: 52.2569

Task: Check COc1cc2nccc(Oc3ccc(NC(=O)C4(C(=O)Nc5ccc(F)cc5)CC4)cc3)c2cc1OC too.
Result: 120.752

Task: Check C=CCNC1=C2C[C@@H](C)C[C@H](OC)[C@H](O)[C@@H](C)/C=C(\C)[C@H](OC(N)=O)[C@@H](OC)/C=C\C=C(/C)C(=O)NC(=CC1=O)C2=O too.
Result: 59.7934

Task: Check CO[C@H]1C[C@@H]2CC[C@@H](C)[C@@](O)(O2)C(=O)C(=O)N2CCCC[C@H]2C(=O)O[C@H]([C@H](C)C[C@@H]2CC[C@@H](OCCO)[C@H](OC)C2)CC(=O)[C@H](C)/C=C(\C)[C@@H](O)[C@@H](OC)C(=O)[C@H](C)C[C@H](C)/C=C/C=C/C=C/1C too.
Result: 29.0998

Task: Check CS(=O)(=O)N1CCN(Cc2cc3nc(-c4cccc5[nH]ncc45)nc(N4CCOCC4)c3s2)CC1 too.
Result: 39.6485

Task: Check Cc1nc2ccc(-n3ncc(C(=O)c4cc5ccccc5[nH]4)c3N)cc2[nH]1 too.
Result: 123.157

Task: Check Nc1ncnc2c1c(-c1cccc(OCc3ccccc3)c1)cn2[C@H]1C[C@@H](CN2CCC2)C1 too.
Result: 111.013

Task: Check CCc1cc2c(cc1N1CCC(N3CCOCC3)CC1)C(C)(C)c1[nH]c3cc(C#N)ccc3c1C2=O too.
Result: 105.786

Task: Check COC(=O)c1ccc2c(c1)NC(=O)/C2=C(\Nc1ccc(N(C)C(=O)CN2CCN(C)CC2)cc1)c1ccccc1 too.
Result: 97.5116

Task: Check CC(=O)Nc1cccc(-n2c(=O)n(C3CC3)c(=O)c3c(Nc4ccc(I)cc4F)n(C)c(=O)c(C)c32)c1 too.
Result: 0.954

Task: Check CO[C@H]1C[C@@H]2CC[C@@H](C)[C@@](O)(O2)C(=O)C(=O)N2CCCC[C@H]2C(=O)O[C@H]([C@H](C)C[C@@H]2CC[C@@H](O)[C@H](OC)C2)CC(=O)[C@H](C)/C=C(\C)[C@@H](O)[C@@H](OC)C(=O)[C@H](C)C[C@H](C)/C=C/C=C/C=C/1C too.
Result: 39.8271

Task: Check COc1cc2nccc(Oc3ccc(NC(=O)NC4CC4)c(Cl)c3)c2cc1C(N)=O too.
Result: 107.525

Task: Check O=C(C(c1ccccc1)c1ccccc1)N1CCN(CC(O)COc2cccc3ncccc23)CC1 (centres unmarked) too.
Result: 113.609

Task: Check Cc1[nH]c(/C=C2\C(=O)Nc3ccc(S(=O)(=O)Cc4c(Cl)cccc4Cl)cc32)c(C)c1C(=O)N1CCC[C@@H]1CN1CCCC1 too.
Result: 119.895

Task: Check COc1cc2c(Oc3ccc(NC(=O)C4(C(=O)Nc5ccc(F)cc5)CC4)cc3F)ccnc2cc1OCCCN1CCOCC1 too.
Result: 99.5833

Task: Check COc1cc(N2CCC(N3CCN(C)CC3)CC2)ccc1Nc1ncnc(Nc2ccccc2S(=O)(=O)C(C)C)n1 too.
Result: 100.941

Task: Check COc1cc(N2CCC(N)CC2)ccc1Nc1ncc(Cl)c(-c2c[nH]c3ccccc23)n1 too.
Result: 31.981
